From: BigSolDB 2.1

# CONDITION PARAMETERS: in acetonitrile, 253.2 K
RECORDED METRIC: solubility (mole fraction)

The molecule listed as C=C1CC[C@H](O)C/C1=C/C=C1\CCC[C@]2(C)[C@@H]([C@H](C)CCCC(C)C)CC[C@@H]12 shows solubility (mole fraction) equal to 9.25e-05

* * *

# CONDITION PARAMETERS: in acetonitrile, 248.2 K
RECORDED METRIC: solubility (mole fraction)
I'd appreciate a reply containing only the number, no unit.

compound C=C1CC[C@H](O)C/C1=C/C=C1\CCC[C@]2(C)[C@@H]([C@H](C)CCCC(C)C)CC[C@@H]12 , solubility (mole fraction) observed: 7.61e-05

* * *

# CONDITION PARAMETERS: in ethanol, 253.2 K
RECORDED METRIC: solubility (mole fraction)
Number, no unit, nothing else.

Summary for this molecule, C=C1CC[C@H](O)C/C1=C/C=C1\CCC[C@]2(C)[C@@H]([C@H](C)CCCC(C)C)CC[C@@H]12 : solubility (mole fraction) is 0.0646

* * *

# CONDITION PARAMETERS: in methanol, 258.2 K
RECORDED METRIC: solubility (mole fraction)

solubility (mole fraction) recorded for this compound, C=C1CC[C@H](O)C/C1=C/C=C1\CCC[C@]2(C)[C@@H]([C@H](C)CCCC(C)C)CC[C@@H]12 , is 0.00337

* * *

# CONDITION PARAMETERS: in ethanol, 258.2 K
RECORDED METRIC: solubility (mole fraction)
Returns: the value as a bare number; no unit string appended.

solubility (mole fraction) recorded for this compound, C=C1CC[C@H](O)C/C1=C/C=C1\CCC[C@]2(C)[C@@H]([C@H](C)CCCC(C)C)CC[C@@H]12 , is 0.0796
